From: patent US10781215B2

- STUDY SYSTEM: human Tyk2 (amino acids 575-869, His-tagged) (Homo sapiens)
- TEST METHOD NOTES: Probe displacement assay (SPA format)
- MEASUREMENT SETUP: radiolabeled probe 40 nM, Tyk2 2.5 nM
METRIC: EC50 (nM)

Sample answers from the record:
1. Cc1ccc(Nc2cc(Nc3ccccc3S(C)(=O)=O)c3nc(C)[nH]c3n2)nn1 | 10
2. Cc1nc2c(Nc3ccccc3S(C)(=O)=O)cc(Nc3cccc(C(F)(F)F)n3)nc2[nH]1 | 5
3. COc1ccnc(Nc2cc(Nc3ccccc3S(C)(=O)=O)c3nc(C)[nH]c3n2)c1 | 240

[a] Cc1nc2c(Nc3ccccc3S(C)(=O)=O)cc(Nc3cc(C#N)ccn3)nc2[nH]1
[b] CCc1nc2c(Nc3ccccc3S(C)(=O)=O)cc(Nc3ccc(F)cn3)nc2[nH]1
[c] Cc1nc2c(Nc3ccccc3S(C)(=O)=O)nc(Nc3ccc(F)cc3)nc2[nH]1
stdin: Arrange the 3 entries by EC50 so the values rise. Answer by listing the labels in the order asked for.
stdout: a, b, c
(a: 12 nM, b: 158 nM, c: 270 nM)

---

- STUDY SYSTEM: recombinant human His-tagged Tyk2 pseudokinase domain (His-TVMV-Tyk2, 575-869) (Homo sapiens, UniProt P29597)
- TEST METHOD NOTES: Probe displacement assay (HTRF format)
- MEASUREMENT SETUP: fluorescein labeled probe, Tyk2 pseudokinase domain 0.5 nM
pEC50: −log10 of the molar value.
METRIC: pEC50

1. Cc1nc2c(Nc3ncccc3S(C)(=O)=O)cc(Nc3ccc(F)cn3)nc2[nH]1 [Example 41] | 9.40
2. Cc1ccnc(Nc2cc(Nc3ncccc3S(C)(=O)=O)c3nc(C)[nH]c3n2)c1 [Example 46] | 8.74
3. COc1ccc(Nc2cc(Nc3ncccc3S(C)(=O)=O)c3nc(C)[nH]c3n2)nc1 [Example 42] | 9.22

[a] Cc1nc2c(Nc3ncccc3S(C)(=O)=O)cc(NC(=O)C3CC3)nc2[nH]1 [Example 47]
[b] COc1ccc(Nc2cc(Nc3ncccc3S(C)(=O)=O)c3nc(C)[nH]c3n2)nn1 [Example 45]
[c] Cc1cccc(Nc2cc(Nc3ncccc3S(C)(=O)=O)c3nc(C)[nH]c3n2)n1 [Example 49]
stdin: Arrange the 3 entries by pEC50 so the values rise. Answer by listing the labels in the order asked for.
stdout: b, c, a
(b: 8.92, c: 9.15, a: 9.40)

---

- STUDY SYSTEM: human Tyk2 (amino acids 575-869, His-tagged) (Homo sapiens)
- TEST METHOD NOTES: Probe displacement assay (SPA format)
- MEASUREMENT SETUP: radiolabeled probe 40 nM, Tyk2 2.5 nM
pEC50: −log10 of the molar value.
METRIC: pEC50

Sample answers from the record:
1) Cc1nc2c(Nc3ccccc3S(C)(=O)=O)cc(Nc3ccn(C(C)C)n3)nc2[nH]1 | 7.24
2) COc1c(Nc2cc(Nc3ccc(F)cn3)nc3[nH]c(C)nc23)cccc1-c1ncn(C)n1 | 7.42
3) COc1ccccc1Nc1cc(Nc2cc(C)nc(C)n2)nc2[nH]c(C)nc12 | 6.54
4) Cc1nc2c(Nc3ccccc3S(C)(=O)=O)cc(Nc3ccc(N4CCOCC4)cn3)nc2[nH]1 | 7.96
5) Cc1nc2c(Nc3ccccc3S(C)(=O)=O)cc(Nc3ccc(F)cn3)nc2[nH]1 | 7.89

[I] Cc1nc2c(Nc3ccccc3S(C)(=O)=O)cc(Nc3ccc(C(=O)N4CCOCC4)cn3)nc2[nH]1
[II] Cc1nc2c(Nc3ccccc3S(C)(=O)=O)cc(Nc3ccc(C#N)c(C)n3)nc2[nH]1
[III] Cc1ccnc(Nc2cc(Nc3ccccc3S(C)(=O)=O)c3nc(C)[nH]c3n2)c1
[IV] COc1ccccc1Nc1cc(Nc2ccc(N3CCOCC3)cn2)nc2[nH]c(C)nc12
stdin: Sort by pEC50, descending. Answer by listing the labels in the order asked for.
stdout: II, I, III, IV

[I] Cc1nc2c(Nc3ccccc3S(C)(=O)=O)cc(Nc3cnc(C(F)(F)F)cn3)nc2[nH]1
[II] COc1ccc(Nc2cc(Nc3ccccc3S(C)(=O)=O)c3nc(C)[nH]c3n2)nn1
stdin: Could you kindly indicate whether I or II has the higher pEC50 value? Identify your pick by its label.
stdout: II
(II: 7.72, I: 7.52)

[a] Cc1ccc(Nc2cc(Nc3ccccc3S(C)(=O)=O)c3nc(C)[nH]c3n2)nc1
[b] Cc1cccc(Nc2cc(Nc3ccccc3S(C)(=O)=O)c3nc(C)[nH]c3n2)n1
[c] Cc1nc2c(Nc3ccccc3S(C)(=O)=O)cc(Nc3ccc(C(F)(F)F)cn3)nc2[nH]1
[d] COc1ccccc1Nc1cc(NC(=O)C2CC2)nc2[nH]c(C)nc12
stdin: Sort by pEC50, descending. Answer by listing the labels in the order asked for.
stdout: b, c, a, d
(b: 8.22, c: 7.89, a: 7.57, d: 6.09)

---

- STUDY SYSTEM: human Tyk2 (amino acids 575-869, His-tagged) (Homo sapiens, UniProt P29597)
- Sequence (P29597 with tags, fused parts or gaps): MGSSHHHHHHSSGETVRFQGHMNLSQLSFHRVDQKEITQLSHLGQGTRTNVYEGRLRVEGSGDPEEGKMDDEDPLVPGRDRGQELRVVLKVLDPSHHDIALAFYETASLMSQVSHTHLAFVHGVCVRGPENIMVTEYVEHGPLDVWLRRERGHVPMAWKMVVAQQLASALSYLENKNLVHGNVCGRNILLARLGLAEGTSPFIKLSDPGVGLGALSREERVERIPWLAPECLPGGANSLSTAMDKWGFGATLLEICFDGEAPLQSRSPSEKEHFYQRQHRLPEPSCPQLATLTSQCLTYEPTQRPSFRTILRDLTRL
- TEST METHOD NOTES: Probe displacement assay (SPA format)
- MEASUREMENT SETUP: radiolabeled probe 40 nM, Tyk2 2.5 nM
pEC50: −log10 of the molar value.
METRIC: pEC50

1. Cc1nc2c(Nc3ccccc3S(C)(=O)=O)cc(Nc3cc(C)n(C)n3)nc2[nH]1 [Example 26] | 7.82
2. COc1ccccc1Nc1cc(Nc2ccc(F)cn2)nc2[nH]c(C)nc12 [Example 38] | 6.29

[A] Cc1nc2c(Nc3ccccc3S(C)(=O)=O)cc(Nc3ccn4nccc4n3)nc2[nH]1 [Example 27]
[B] Cc1nc2c(Nc3ccccc3S(C)(=O)=O)cc(Nc3ccc(C(N)=O)cn3)nc2[nH]1 [Example 14]
stdin: In terms of reported pEC50, does A or B have the smaller number? Identify your pick by its label.
stdout: B
(B: 7.96, A: 8.40)

---

- Tested on: IL-23 stimulated Kit225 T cells (STAT-dependent luciferase reporter)
- TEST METHOD NOTES: Kit225 T cell assay, IL-23 stimulated STAT-dependent luciferase reporter
- Type: cell-based
- MEASUREMENT SETUP: 20 ng/mL human recombinant IL-23, 5-6 hours
pIC50: −log10 of the molar value.
METRIC: pIC50

1) Cc1nc2c(Nc3ccccc3S(C)(=O)=O)cc(Nc3ccc(C(=O)N4CCOCC4)cn3)nc2[nH]1 [Example 8] | 5.71
2) Cc1nc2c(Nc3ccccc3S(C)(=O)=O)cc(Nc3cc(C)c(F)cn3)nc2[nH]1 [Example 31] | 6.63
3) COc1c(Nc2cc(NC(=O)C3CC3)nc3[nH]c(C)nc23)cccc1-c1ncn(C)n1 [Example 39] | 5.52
4) COc1ccc(Nc2cc(Nc3ccccc3S(C)(=O)=O)c3nc(C)[nH]c3n2)nn1 [Example 19] | 6.32
5) Cc1nc2c(Nc3ccccc3S(C)(=O)=O)cc(Nc3ccc(C#N)c(C)n3)nc2[nH]1 [Example 25] | 6.69
6) Cc1cc(Nc2cc(Nc3ccccc3S(C)(=O)=O)c3nc(C)[nH]c3n2)nc(C)n1 [Example 4] | 6.46
7) Cc1cccc(Nc2cc(Nc3ccccc3S(C)(=O)=O)c3nc(C)[nH]c3n2)n1 [Example 29] | 7.68
8) Cc1nc2c(Nc3ncccc3S(C)(=O)=O)cc(Nc3ccc(F)cn3)nc2[nH]1 [Example 41] | 7.55
9) COc1ccccc1Nc1cc(Nc2cc(C)nc(C)n2)nc2[nH]c(C)nc12 [Example 36] | 6.08
10) Cc1nc2c(Nc3ccccc3S(C)(=O)=O)cc(Nc3ccn(C)n3)nc2[nH]1 [Example 22] | 6.43

[I] Cc1nc2c(Nc3ccccc3S(C)(=O)=O)cc(Nc3ccn(C(C)C)n3)nc2[nH]1 [Example 30]
[II] Cc1nc2c(Nc3ccccc3S(C)(=O)=O)cc(Nc3ccc(C(N)=O)cn3)nc2[nH]1 [Example 14]
[III] Cc1ccnc(Nc2cc(Nc3ncccc3S(C)(=O)=O)c3nc(C)[nH]c3n2)c1 [Example 46]
[IV] Cc1nc2c(Nc3ccccc3S(C)(=O)=O)cc(Nc3cnc(C(F)(F)F)cn3)nc2[nH]1 [Example 12]
[V] Cc1nc2c(Nc3ccccc3S(C)(=O)=O)cc(Nc3cccc(C(F)(F)F)n3)nc2[nH]1 [Example 23]
stdin: Sort by pIC50, descending. Answer by listing the labels in the order asked for.
stdout: V, IV, I, III, II

[1] COc1ccnc(Nc2cc(Nc3ccccc3S(C)(=O)=O)c3nc(C)[nH]c3n2)c1 [Example 18]
[2] Cc1ccc(Nc2cc(Nc3ccccc3S(C)(=O)=O)c3nc(C)[nH]c3n2)nc1 [Example 21]
stdin: In terms of reported pIC50, does 1 or 2 have the smaller number? Identify your pick by its label.
stdout: 1

[P] Cc1nc2c(Nc3ccccc3S(C)(=O)=O)nc(Nc3ccc(F)cc3)nc2[nH]1 [Example 1]
[Q] Cc1nc2c(Nc3ccccc3S(C)(=O)=O)cc(Nc3ccn4nccc4n3)nc2[nH]1 [Example 27]
[R] COc1ccc(Nc2cc(Nc3ccccc3S(C)(=O)=O)c3nc(C)[nH]c3n2)nc1 [Example 16]
[S] Cc1cnc(Nc2cc(Nc3ccccc3S(C)(=O)=O)c3nc(C)[nH]c3n2)cn1 [Example 15]
stdin: Sort by pIC50, descending. Answer by listing the labels in the order asked for.
stdout: R, S, Q, P
